The measured values listed here are drawn from paper PMC9482650.

biological target: MAGI3_3, Q5TCQ9; experiment: holdup assay; set-up: key: below the threshold = too weak to quantify, mostly under pKd 3.1 to 4; settings: plain residues with an end cap or a label only (N-terminal biotin on a linker: ttds)
Sequence (Q5TCQ9 572-655): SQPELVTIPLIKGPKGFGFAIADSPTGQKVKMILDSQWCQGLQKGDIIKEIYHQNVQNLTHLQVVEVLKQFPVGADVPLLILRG
Reported Metric: pKd

PKTPPTDTSV [KIR3DL3, Q8N743]
below the threshold
RSLEEEESQL [GRASP, Q7Z6J2]
below the threshold
SSRTRRETQL [HPV16-E6, P03126]
below the threshold
